Hi there, I'd appreciate the recorded koff for every entry that follows.
Target: T1, Human ST2-his (human, UniProt Q01638-2 19-328, limits assumed)
T1 construct: Expressed in CHO-K1; The printed range starts at Met1; also called human ST2 fused with a 6-histidine tag at the C-terminus
T1 sequence: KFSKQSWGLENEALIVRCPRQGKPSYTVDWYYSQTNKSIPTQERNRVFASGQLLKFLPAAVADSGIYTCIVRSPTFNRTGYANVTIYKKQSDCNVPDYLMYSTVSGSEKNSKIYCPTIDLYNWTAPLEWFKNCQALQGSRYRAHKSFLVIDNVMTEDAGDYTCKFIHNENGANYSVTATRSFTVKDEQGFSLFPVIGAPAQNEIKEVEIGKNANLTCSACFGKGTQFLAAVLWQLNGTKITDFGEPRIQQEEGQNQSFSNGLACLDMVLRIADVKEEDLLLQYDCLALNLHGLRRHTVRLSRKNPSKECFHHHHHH
Test: SPR Biacore X100, antibody captured on protein A chip, human ST2-his injected, dissociation at pH 5.5
Supply the numeric figure in s⁻¹, leaving out any unit text.

Prompt: Item 5888-153-H0L1 (antibody, human IgG4 S228P, kappa, V domains shown, Humanized antibody) VH: QVQLVQSGAEVKKPGASVKVSCKASGYTFTDYELHWVRQAPGQGLEWMGTIDPETGDTVYNQKFKARVTMTRDTSTSTVYMELSSLRSEDTAVYYCARAFYNDYDDGFAYWGQGTLVTVSS VL: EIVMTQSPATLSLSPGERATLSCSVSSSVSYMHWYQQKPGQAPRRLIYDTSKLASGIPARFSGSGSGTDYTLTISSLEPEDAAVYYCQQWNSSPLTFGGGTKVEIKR has what recorded koff?
Completion: 0.000152

Prompt: Repeat for the following binder: 5888-379-H1L0 (antibody, human IgG4 S228P, kappa, V domains shown, Humanized antibody) VH: QVQLVQSGAEVKKPGASVKVSCKASGYTFINYGMNWVRQAPGQRLEWMGWINTYIGEPTYGDNFKGRVTITRDTSASTAYMELSSLRSEDTAVYYCAREGEGFAYWGQGTLVTVSS VL: DIQMTQSPSSLSASVGDRVTITCKSSQSLLYSGNQNNYLAWYQQKPGKVPKLLIYGASTRESGVPSRFSGSGSGTDFTLTISSLQPEDVATYYCQNDHSYPYTFGGGTKVEIKR
Completion: 0.00255

Data origin, for the record: patent US12624112
